Values were extracted from patent US20090264384A1.

Target: PCP
Assay: PCP binding assay
Conditions: reference compound; Cheng Prusoff
measuredEndpoint: Ki (nM)
The figure you give is taken to be in nM; do not add the unit.

The measured Ki associated with C[C@]12N[C@H](Cc3ccccc31)c1ccccc12 reads 2.8

* * *

Test: Various In Vitro Cell Biology Assays (Example 41, Tables 23-26)
Format: cell-based
Conditions: PBMC, 24 h, IL-8 secretion (h) (PBMC), LPS 1 μg/ml, 24 h; 3×10^−6 M; read-out: % Inhibition of Control Values
Listing of entries alongside the reported inhibition at 3 µM.
Numeric answer only, unit % assumed.

Looking up C[C@@H]1CC2C3CCC4=CC(=O)C=CC4(C)C3(F)[C@@H](O)CC2(C)C1(O)C(=O)CO (stereo partly drawn) [drawing 102] , I see its inhibition at 3 µM listed as 67

// Nc1nc(Cl)c2ncn(CCCCCB(O)O)c2n1 [drawing 103] : inhibition at 3 µM value = 8

Consider OB(O)CCCCn1c(C(F)(F)F)nc2ccccc21 [drawing 101] . Its measured inhibition at 3 µM is -29

Memo: N#Cc1ncnc2c1ncn2CCCCCB(O)O [drawing 104] , reported inhibition at 3 µM: -33

Field inhibition at 3 µM (entry N#Cc1ccc2c(ccn2CCCCCB(O)O)c1 [drawing 100] ) reads -63

Value of inhibition at 3 µM reported for the molecule OB(O)CCCCCn1c(-c2cscn2)nc2ccccc21 [CCI-7034] is -32

* * *

Target: AMPA
Experiment: AMPA binding assay
Conditions: reference compound
measuredEndpoint: IC50 (nM)
# number only, unit nM dropped from output

Entry N[C@@H](CCC(=O)O)C(=O)O [L-glutamate] ; IC50 = 1300

* * *

Target: I1 (peripheral)
Assay: I1 (peripheral) binding assay
Details: reference compound
measuredEndpoint: pIC50
As a rule, pIC50 stands for the negative log10 of the concentration, concentration in M.

// pIC50 value for C1COC(NC(C2CC2)C2CC2)=N1 : 6.72

* * *

Molecular target: P2Y
Assay: P2Y binding assay
Settings: reference compound; Cheng Prusoff
measuredEndpoint: pKi
Entry type: numeric. Quantity: pKi, the -log10 of concentration in molar units.

The compound listed as Nc1ncnc2c1ncn2[C@H]1C[C@H](O)[C@@H](COP(O)(=S)OP(=O)(O)OP(=O)(O)O)O1 (stereo partly shown) [dATPαS] has a reported pKi of 7.28

* * *

Molecular target: I1 (peripheral)
Assay: I1 (peripheral) binding assay
Conditions: reference compound; Cheng Prusoff
measuredEndpoint: Ki (nM)
Respond with the bare value in nM.

Lookup result for C1COC(NC(C2CC2)C2CC2)=N1 ; measured Ki: 96

* * *

Target: Ca^2+ channel (L, verapamil site) (phenylalkylamines)
Test: Ca^2+ channel (L, verapamil site) binding assay
measuredEndpoint: pKi
Answer as the number alone; pKi is minus log10 of concentration in mol/L.

Item: COc1ccc(CCN(C)CCCC(C#N)(c2cc(OC)c(OC)c(OC)c2)C(C)C)cc1OC (stereo not shown) | pKi: 9.08

* * *

Biological target: Phosphodiesterase 2(h) (Homo sapiens, UniProt O00408)
Construct: differentiated U-; endogenous in cells
Sequence (O00408 whole entry): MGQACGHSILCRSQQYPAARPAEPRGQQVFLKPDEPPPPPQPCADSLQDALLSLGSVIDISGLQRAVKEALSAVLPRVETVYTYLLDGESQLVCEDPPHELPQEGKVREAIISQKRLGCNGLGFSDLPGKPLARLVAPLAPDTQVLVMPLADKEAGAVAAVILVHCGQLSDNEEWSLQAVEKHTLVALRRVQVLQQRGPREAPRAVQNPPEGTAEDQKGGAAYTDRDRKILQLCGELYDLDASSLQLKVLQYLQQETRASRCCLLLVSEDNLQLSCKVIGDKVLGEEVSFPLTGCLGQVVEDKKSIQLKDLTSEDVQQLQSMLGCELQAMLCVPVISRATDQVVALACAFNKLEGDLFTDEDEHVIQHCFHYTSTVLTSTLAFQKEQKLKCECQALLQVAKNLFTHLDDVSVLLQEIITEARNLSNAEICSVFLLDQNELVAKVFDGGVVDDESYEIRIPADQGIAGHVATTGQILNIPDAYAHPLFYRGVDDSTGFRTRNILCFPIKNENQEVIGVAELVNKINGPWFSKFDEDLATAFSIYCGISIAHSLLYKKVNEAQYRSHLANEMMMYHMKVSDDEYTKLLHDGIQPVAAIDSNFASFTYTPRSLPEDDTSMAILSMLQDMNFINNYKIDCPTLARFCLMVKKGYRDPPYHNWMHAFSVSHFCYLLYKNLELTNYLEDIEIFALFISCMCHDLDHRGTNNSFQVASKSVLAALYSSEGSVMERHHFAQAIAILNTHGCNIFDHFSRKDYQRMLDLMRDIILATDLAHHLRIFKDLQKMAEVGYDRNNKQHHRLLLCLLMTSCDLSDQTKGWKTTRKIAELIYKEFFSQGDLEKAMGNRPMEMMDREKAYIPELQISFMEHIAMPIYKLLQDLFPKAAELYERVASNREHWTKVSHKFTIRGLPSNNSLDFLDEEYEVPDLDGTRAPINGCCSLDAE
Assay: Phosphodiesterase 2(h) enzyme assay
Conditions: reference compound, Phosphodiesterase 2(h)
measuredEndpoint: IC50 (µM)
Give just the number in µM; leave the unit off.

The recorded IC50 for entry CCCCCC[C@@H]([C@@H](C)O)n1cnc2c(N)ncnc21 (racemic) equals 4.1
